- test.system: T1, recombinant human IL-6 (human, UniProt P05231 30-212)
- T1 construct: Flowed in solution over the captured antibodies
- T1 sequence (P05231 30-212 limits assumed): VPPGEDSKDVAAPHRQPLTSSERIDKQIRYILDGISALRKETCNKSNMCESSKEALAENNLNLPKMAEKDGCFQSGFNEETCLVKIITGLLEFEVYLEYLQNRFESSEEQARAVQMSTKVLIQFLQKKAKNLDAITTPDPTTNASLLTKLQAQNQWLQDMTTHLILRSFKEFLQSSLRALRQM
- assay.explanation: SPR (Biacore), purified IgG on Protein A, 37 C
Records here are stratified by Kd; strata: I = under 0.4 nM, II = from 0.4 nM up to 0.5 nM, III = 0.5 nM and over

Example entries and their recorded answers appear below.
| binder | group |
| --- | --- |
| anti-IL-6 antibody, heavy chain F29H, light chain WT (antibody, IgG1, V domains shown, Full IgG1 tested; V domains derived as in m2) VH: EVQLVESGGGLVQPGGSLRLSCAASGFTHSPFAMSWVRQAPGKGLEWVAKISPGGSWTYYSDTVTGRFTFSLDTSKSTAYLQMNSLRAEDTAVYYCARQLWGYYALDIWGQGTLVTVSS VL: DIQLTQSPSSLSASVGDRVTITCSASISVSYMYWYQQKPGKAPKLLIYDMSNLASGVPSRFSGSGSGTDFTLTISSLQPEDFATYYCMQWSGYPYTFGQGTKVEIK | II |
| anti-IL-6 antibody, heavy chain W57F, light chain WT (antibody, IgG1, V domains shown, Full IgG1 tested; V domains derived as in m2) VH: EVQLVESGGGLVQPGGSLRLSCAASGFTFSPFAMSWVRQAPGKGLEWVAKISPGGSFTYYSDTVTGRFTFSLDTSKSTAYLQMNSLRAEDTAVYYCARQLWGYYALDIWGQGTLVTVSS VL: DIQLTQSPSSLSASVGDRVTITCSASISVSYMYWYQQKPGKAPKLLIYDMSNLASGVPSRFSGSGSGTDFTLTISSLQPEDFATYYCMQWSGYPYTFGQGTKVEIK | III |

Challenge: In plain terms, what class is anti-IL-6 antibody, heavy chain D62Q, light chain WT (antibody, IgG1, V domains shown, Full IgG1 tested; V domains derived as in m2) VH: EVQLVESGGGLVQPGGSLRLSCAASGFTFSPFAMSWVRQAPGKGLEWVAKISPGGSWTYYSQTVTGRFTFSLDTSKSTAYLQMNSLRAEDTAVYYCARQLWGYYALDIWGQGTLVTVSS VL: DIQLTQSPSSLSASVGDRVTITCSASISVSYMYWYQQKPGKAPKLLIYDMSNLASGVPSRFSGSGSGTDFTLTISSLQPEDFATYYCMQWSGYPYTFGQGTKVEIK ?
Response given: III

Challenge: Which bin should I file anti-IL-6 antibody, parent sequence (heavy chain WT, light chain WT) (antibody, V domains shown, Tested as full antibody from Expi293 cells in an engineered human IgG1 framework (L234A, L235A, G237A, L443C, EU); also called wild-type; parent molecule) VH: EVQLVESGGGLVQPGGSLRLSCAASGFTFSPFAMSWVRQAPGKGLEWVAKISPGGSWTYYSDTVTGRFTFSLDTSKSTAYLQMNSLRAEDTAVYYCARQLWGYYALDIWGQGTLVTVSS VL: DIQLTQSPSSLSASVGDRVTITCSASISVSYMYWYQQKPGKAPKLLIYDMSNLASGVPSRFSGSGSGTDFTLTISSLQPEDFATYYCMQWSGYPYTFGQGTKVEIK under?
Response given: I

Challenge: // return the class label for anti-IL-6 antibody, heavy chain G66D, light chain WT (antibody, IgG1, V domains shown, Full IgG1 tested) VH: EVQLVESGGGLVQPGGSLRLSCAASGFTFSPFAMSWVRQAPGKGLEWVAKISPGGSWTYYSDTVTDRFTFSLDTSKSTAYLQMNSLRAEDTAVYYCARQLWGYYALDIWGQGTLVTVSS VL: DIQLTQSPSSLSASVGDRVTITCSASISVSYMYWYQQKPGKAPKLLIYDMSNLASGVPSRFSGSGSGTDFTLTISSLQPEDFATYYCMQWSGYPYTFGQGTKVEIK
Response given: I

Challenge: Place this binder in its band: anti-IL-6 antibody, heavy chain G66E, light chain WT (antibody, IgG1, V domains shown, Full IgG1 tested; V domains derived as in m2) VH: EVQLVESGGGLVQPGGSLRLSCAASGFTFSPFAMSWVRQAPGKGLEWVAKISPGGSWTYYSDTVTERFTFSLDTSKSTAYLQMNSLRAEDTAVYYCARQLWGYYALDIWGQGTLVTVSS VL: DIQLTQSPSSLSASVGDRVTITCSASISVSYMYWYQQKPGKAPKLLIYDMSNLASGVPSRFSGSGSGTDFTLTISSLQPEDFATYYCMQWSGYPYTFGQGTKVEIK
Response given: I

Challenge: Into which bin does this binder go? anti-IL-6 antibody, heavy chain F32G, light chain WT (antibody, IgG1, V domains shown, Full IgG1 tested; V domains derived as in m2) VH: EVQLVESGGGLVQPGGSLRLSCAASGFTFSPGAMSWVRQAPGKGLEWVAKISPGGSWTYYSDTVTGRFTFSLDTSKSTAYLQMNSLRAEDTAVYYCARQLWGYYALDIWGQGTLVTVSS VL: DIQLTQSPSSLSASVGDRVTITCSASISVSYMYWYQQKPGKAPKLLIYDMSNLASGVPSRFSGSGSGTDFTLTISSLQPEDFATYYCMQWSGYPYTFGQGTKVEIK
Response given: III

Challenge: Which band does anti-IL-6 antibody, heavy chain D107E, light chain WT (antibody, IgG1, V domains shown, Full IgG1 tested; V domains derived as in m2) VH: EVQLVESGGGLVQPGGSLRLSCAASGFTFSPFAMSWVRQAPGKGLEWVAKISPGGSWTYYSDTVTGRFTFSLDTSKSTAYLQMNSLRAEDTAVYYCARQLWGYYALEIWGQGTLVTVSS VL: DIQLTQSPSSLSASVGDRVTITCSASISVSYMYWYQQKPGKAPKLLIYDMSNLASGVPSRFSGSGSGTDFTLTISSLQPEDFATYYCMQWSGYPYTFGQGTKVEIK fall in?
Response given: III

Challenge: Lab log: anti-IL-6 antibody, heavy chain WT, light chain A25T (antibody, IgG1, V domains shown, Full IgG1 tested; V domains derived as in m2) VH: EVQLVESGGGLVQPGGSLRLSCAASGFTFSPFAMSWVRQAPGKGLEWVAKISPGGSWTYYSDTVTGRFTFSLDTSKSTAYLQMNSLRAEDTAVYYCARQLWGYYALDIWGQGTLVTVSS VL: DIQLTQSPSSLSASVGDRVTITCSTSISVSYMYWYQQKPGKAPKLLIYDMSNLASGVPSRFSGSGSGTDFTLTISSLQPEDFATYYCMQWSGYPYTFGQGTKVEIK — assign Kd category
Response given: II
